assay: Brain tissue pharmacokinetics of Ls-TPT formulations and free topotecan after intracerebral CED (HPLC of total topotecan); type: in vivo, Sprague-Dawley rats; details: Sprague-Dawley, brain (striatum); normal rat striatum, CED 20 μL per hemisphere, TPT 0.5 mg/mL; 96 hours; read-out: Topotecan brain tissue concentration, Mean ± STD
ENDPOINT: concentration at 96 h (nM)
State the answer as a number, implicitly in nM.

**Q:** Which concentration at 96 h value is on record for CC[C@@]1(O)C(=O)OCc2c1cc1n(c2=O)Cc2cc3c(CN(C)C)c(O)ccc3nc2-1 [Formulation F4, topotecan] ?
**A:** 0

###

assay: Brain tissue pharmacokinetics of Ls-TPT formulations and free topotecan after intracerebral CED (HPLC of total topotecan); format: in vivo, Sprague-Dawley rats; conditions: Sprague-Dawley, brain (striatum); normal rat striatum, CED 20 μL per hemisphere, TPT 0.5 mg/mL; 6 hours; read-out: Topotecan brain tissue concentration, Mean ± STD
ENDPOINT: concentration at 6 h (µM)
State the answer as a number, implicitly in µM.

**Q:** Which concentration at 6 h value is on record for `CC[C@@]1(O)C(=O)OCc2c1cc1n(c2=O)Cc2cc3c(CN(C)C)c(O)ccc3nc2-1` ?
**A:** 15.6

###

experiment: Brain tissue pharmacokinetics of Ls-TPT formulations and free topotecan after intracerebral CED (HPLC of total topotecan); type: in vivo, Sprague-Dawley rats; conditions: Sprague-Dawley, brain (striatum); normal rat striatum, CED 20 μL per hemisphere, TPT 0.5 mg/mL; 168 hours; read-out: Topotecan brain tissue concentration, Mean ± STD
ENDPOINT: concentration at 168 h (nM)
State the answer as a number, implicitly in nM.

**Q:** Which concentration at 168 h value is on record for CC[C@@]1(O)C(=O)OCc2c1cc1n(c2=O)Cc2cc3c(CN(C)C)c(O)ccc3nc2-1 [Formulation F4, topotecan] ?
**A:** 0

###

experiment: Brain tissue pharmacokinetics of Ls-TPT formulations and free topotecan after intracerebral CED (HPLC of total topotecan); type: in vivo, Sprague-Dawley rats; conditions: Sprague-Dawley, brain (striatum); normal rat striatum, CED 20 μL per hemisphere, TPT 0.5 mg/mL; 48 hours; read-out: Topotecan brain tissue concentration, Mean ± STD
ENDPOINT: concentration at 48 h (nM)
State the answer as a number, implicitly in nM.

**Q:** Which concentration at 48 h value is on record for `CC[C@@]1(O)C(=O)OCc2c1cc1n(c2=O)Cc2cc3c(CN(C)C)c(O)ccc3nc2-1` ?
**A:** 0
